Reference for the values: ChEMBL document CHEMBL3580636

Target: Phosphatidylinositol 4,5-bisphosphate 3-kinase catalytic subunit delta isoform (Homo sapiens, UniProt O00329)
Sequence (O00329 whole entry, canonical isoform): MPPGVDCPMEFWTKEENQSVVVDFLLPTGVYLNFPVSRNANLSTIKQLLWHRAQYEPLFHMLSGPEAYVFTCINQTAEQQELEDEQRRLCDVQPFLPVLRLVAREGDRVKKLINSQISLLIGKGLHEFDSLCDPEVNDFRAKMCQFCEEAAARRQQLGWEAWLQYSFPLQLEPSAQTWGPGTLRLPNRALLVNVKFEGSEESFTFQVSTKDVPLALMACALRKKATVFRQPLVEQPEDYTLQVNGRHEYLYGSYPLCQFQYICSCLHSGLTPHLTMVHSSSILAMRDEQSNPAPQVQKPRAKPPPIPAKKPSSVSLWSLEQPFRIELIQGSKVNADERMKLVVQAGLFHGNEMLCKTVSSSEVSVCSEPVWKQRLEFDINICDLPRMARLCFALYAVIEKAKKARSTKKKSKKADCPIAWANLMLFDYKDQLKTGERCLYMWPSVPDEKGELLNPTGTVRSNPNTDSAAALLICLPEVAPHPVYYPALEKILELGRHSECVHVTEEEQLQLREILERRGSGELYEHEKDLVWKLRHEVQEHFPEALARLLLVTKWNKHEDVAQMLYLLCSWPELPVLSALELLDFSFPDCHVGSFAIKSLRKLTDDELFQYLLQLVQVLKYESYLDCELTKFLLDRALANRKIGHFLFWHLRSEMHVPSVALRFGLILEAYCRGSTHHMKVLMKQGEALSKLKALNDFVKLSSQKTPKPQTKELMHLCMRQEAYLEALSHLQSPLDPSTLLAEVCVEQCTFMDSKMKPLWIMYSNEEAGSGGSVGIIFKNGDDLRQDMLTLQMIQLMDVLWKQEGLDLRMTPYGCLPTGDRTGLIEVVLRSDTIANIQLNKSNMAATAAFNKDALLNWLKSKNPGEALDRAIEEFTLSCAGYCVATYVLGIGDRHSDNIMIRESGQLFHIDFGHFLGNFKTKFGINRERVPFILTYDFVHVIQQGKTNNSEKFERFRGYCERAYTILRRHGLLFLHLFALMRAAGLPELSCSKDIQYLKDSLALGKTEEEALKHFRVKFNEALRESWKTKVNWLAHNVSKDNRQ
Assay: Inhibition of PI3Kdelta (unknown origin)
measured_parameter: IC50 (µM)

In [3]: df
Out[3]:
                                 cpd_smiles  measured_parameter  unit_string  recorded_number
0  COc1ccc(-c2cc(CNc3ccc(S(=O)(=O)Nc4nnc(C)s4)cc3)cc(C(=O)O)c2)cn1                IC50           µM            0.059
1  Cc1nnc(NS(=O)(=O)c2ccc(NCc3cc(C(=O)O)cc(-c4ccc5c(c4)OCCO5)c3)cc2)s1                IC50           µM           0.0631
2  COc1ccc(-c2cc(CNc3ccc(S(=O)(=O)Nc4nnc(C)s4)cc3)cc(C(=O)NCCc3ccccc3F)c2)cn1                IC50           µM             0.01
3  COc1ccc(-c2cc(CNc3ccc(S(=O)(=O)Nc4nnc(C)s4)cc3)cc(C(=O)NCCC(C)C)c2)cn1                IC50           µM            0.004
4  COc1ccc(-c2cc(CNc3ccc(S(=O)(=O)N(C)c4nnc(C)s4)cc3)cc(C(=O)NCCc3ccccc3F)c2)cn1                IC50           µM                2
5  COc1ccc(-c2cc(CNc3ccc(S(=O)(=O)Nc4nnc(C)s4)cc3)cc(C(=O)NC(CO)CO)c2)cn1                IC50           µM             0.02
6  COc1ccc(-c2cccc(CNc3ccc(S(=O)(=O)Nc4nnc(C)s4)cc3)c2)cn1                IC50           µM            0.044
7  Cc1nnc(NS(=O)(=O)c2ccc(NCc3cc(C(=O)O)cc(-c4ccc5c(c4)OCO5)c3)cc2)s1                IC50           µM            0.199
